# system: Delta-type opioid receptor (Homo sapiens, UniProt P41143)
# Sequence (P41143 whole entry): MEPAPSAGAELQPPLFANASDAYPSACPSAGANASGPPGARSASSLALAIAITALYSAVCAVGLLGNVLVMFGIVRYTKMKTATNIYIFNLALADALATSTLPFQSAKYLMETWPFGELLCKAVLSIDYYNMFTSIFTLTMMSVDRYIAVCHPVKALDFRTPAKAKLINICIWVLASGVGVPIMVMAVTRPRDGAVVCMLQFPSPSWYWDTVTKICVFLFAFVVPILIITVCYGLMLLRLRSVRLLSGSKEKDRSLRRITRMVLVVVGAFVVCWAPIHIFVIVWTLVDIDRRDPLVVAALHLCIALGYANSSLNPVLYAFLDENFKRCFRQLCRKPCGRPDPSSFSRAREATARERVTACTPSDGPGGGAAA
# test: Displacement of [3H]naltrindole from human delta-opioid receptor expressed in CHO cells after 3 hrs by scintillation counting
Provide the recorded Ki for the entries that follow.
Give just the number in nM; leave the unit off.

Could you tell me which Ki is on file for c1c2c(cc3sc(NCCCCCCCCCCNc4nc5cc6c(cc5s4)C[C@@H]4[C@@H]5CCCC[C@]65CCN4CC4CC4)nc13)C[C@@H]1[C@@H]3CCCC[C@]23CCN1CC1CC1 ?
39

Also CO[C@@]12CCCC[C@@]13CCN(CC1CCC1)[C@@H]2Cc1ccc(OC(=O)CCCCCCCCC(=O)OCc2ccccc2)cc13 , if possible.
14

Also CO[C@@]12CCCC[C@@]13CCN(CC1CCC1)[C@@H]2Cc1ccc(OC(=O)CCCCCCCCC(=O)Oc2ccc4c(c2)[C@@]25CCCC[C@@]2(OC)[C@@H](C4)N(CC2CCC2)CC5)cc13 , if possible.
13

====

# system: Kappa-type opioid receptor (Homo sapiens, UniProt P41145)
# Sequence (P41145 whole entry): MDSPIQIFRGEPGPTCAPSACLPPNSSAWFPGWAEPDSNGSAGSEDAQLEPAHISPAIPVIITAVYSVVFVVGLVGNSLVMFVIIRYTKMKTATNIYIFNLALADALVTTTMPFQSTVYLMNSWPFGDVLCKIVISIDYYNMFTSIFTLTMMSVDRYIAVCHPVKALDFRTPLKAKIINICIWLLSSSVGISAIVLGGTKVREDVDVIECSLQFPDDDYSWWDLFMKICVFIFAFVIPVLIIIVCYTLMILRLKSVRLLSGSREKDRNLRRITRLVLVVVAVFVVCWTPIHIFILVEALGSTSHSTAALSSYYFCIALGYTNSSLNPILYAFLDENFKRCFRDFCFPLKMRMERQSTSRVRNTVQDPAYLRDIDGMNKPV
# test: Agonist activity at human kappa-opioid receptor expressed in CHO cells assessed as stimulation of [35S]GTPgammaS binding after 60 mins by scintillation counting relative to control
# Type: functional, cell-based
Provide the recorded Emax for the entries that follow.
Param answer (str): number followed by unit.

Could you tell me which Emax is on file for c1c2c(cc3sc(NCCCCCCCCCCNc4nc5cc6c(cc5s4)C[C@@H]4[C@@H]5CCCC[C@]65CCN4CC4CC4)nc13)C[C@@H]1[C@@H]3CCCC[C@]23CCN1CC1CC1 ?
130%

Also C=CCN1CC[C@]23c4c5ccc(OC(=O)CCCCCCCCC(=O)Oc6ccc7c(c6)[C@@]68CCCC[C@@]6(O)[C@@H](C7)N(CC6CCC6)CC8)c4O[C@H]2C(=O)CC[C@@]3(O)[C@H]1C5 , if possible.
74%

Also O=C(CCCCCCCCC(=O)Nc1nc2cc3c(cc2s1)C[C@@H]1[C@@H]2CCCC[C@]32CCN1CC1CC1)Nc1nc2cc3c(cc2s1)C[C@@H]1[C@@H]2CCCC[C@]32CCN1CC1CC1 , if possible.
130%

Also CO[C@@]12CCCC[C@@]13CCN(CC1CCC1)[C@@H]2Cc1ccc(OC(=O)CCCCCCCCC(=O)Oc2ccc4c(c2)[C@@]25CCCC[C@@]2(OC)[C@@H](C4)N(CC2CCC2)CC5)cc13 , if possible.
83%

Also C=CCN1CC[C@]23c4c5ccc(OC(=O)CCCCCCCCC(=O)Oc6ccc7c(c6)[C@@]68CCCC[C@@]6(OC)[C@@H](C7)N(CC6CCC6)CC8)c4O[C@H]2C(=O)CC[C@@]3(O)[C@H]1C5 , if possible.
80%

====

# Species on record: Homo sapiens
# test: Selectivity ratio of Ki for human kappa opioid receptor over Ki for human mu opioid receptor
Provide the recorded Ratio Ki for the entries that follow.
Form: value (number only, do not type unit).

Could you tell me which Ratio Ki is on file for CO[C@@]12CCCC[C@@]13CCN(CC1CCC1)[C@@H]2Cc1ccc(OC(=O)CCCCCCCCC(=O)OCc2ccccc2)cc13 ?
1

Also Nc1nc2cc3c(cc2s1)C[C@@H]1[C@@H]2CCCC[C@]32CCN1CC1CC1 , if possible.
31

Also O=C(CCCCCCCCC(=O)Oc1ccc2c(c1)[C@@]13CCCC[C@@]1(O)[C@@H](C2)N(CC1CCC1)CC3)Oc1ccc2c(c1)[C@@]13CCCC[C@H]1[C@@H](C2)N(CC1CCC1)CC3 , if possible.
1

Also CO[C@@]12CCCC[C@@]13CCN(CC1CCC1)[C@@H]2Cc1ccc(O)cc13 , if possible.
1

Also C=CCN1CC[C@]23c4c5ccc(OC(=O)CCCCCCCCC(=O)Oc6ccc7c(c6)[C@@]68CCCC[C@@]6(O)[C@@H](C7)N(CC6CCC6)CC8)c4O[C@H]2C(=O)CC[C@@]3(O)[C@H]1C5 , if possible.
3
